- TARGET_OF_ASSAY: Ba/F3 ETV6-FGFR4-V550L cells (Homo sapiens, UniProt P22455, V550L, cells depend on it)
- Construct: fused on or other part: N-terminal part of ETV6 (TEL), the oligomerising partner of the fusion; already named as the first entry; P41212 (Transcription factor ETV6)
- Sequence (P22455 whole entry V550L, the tested form may be a part): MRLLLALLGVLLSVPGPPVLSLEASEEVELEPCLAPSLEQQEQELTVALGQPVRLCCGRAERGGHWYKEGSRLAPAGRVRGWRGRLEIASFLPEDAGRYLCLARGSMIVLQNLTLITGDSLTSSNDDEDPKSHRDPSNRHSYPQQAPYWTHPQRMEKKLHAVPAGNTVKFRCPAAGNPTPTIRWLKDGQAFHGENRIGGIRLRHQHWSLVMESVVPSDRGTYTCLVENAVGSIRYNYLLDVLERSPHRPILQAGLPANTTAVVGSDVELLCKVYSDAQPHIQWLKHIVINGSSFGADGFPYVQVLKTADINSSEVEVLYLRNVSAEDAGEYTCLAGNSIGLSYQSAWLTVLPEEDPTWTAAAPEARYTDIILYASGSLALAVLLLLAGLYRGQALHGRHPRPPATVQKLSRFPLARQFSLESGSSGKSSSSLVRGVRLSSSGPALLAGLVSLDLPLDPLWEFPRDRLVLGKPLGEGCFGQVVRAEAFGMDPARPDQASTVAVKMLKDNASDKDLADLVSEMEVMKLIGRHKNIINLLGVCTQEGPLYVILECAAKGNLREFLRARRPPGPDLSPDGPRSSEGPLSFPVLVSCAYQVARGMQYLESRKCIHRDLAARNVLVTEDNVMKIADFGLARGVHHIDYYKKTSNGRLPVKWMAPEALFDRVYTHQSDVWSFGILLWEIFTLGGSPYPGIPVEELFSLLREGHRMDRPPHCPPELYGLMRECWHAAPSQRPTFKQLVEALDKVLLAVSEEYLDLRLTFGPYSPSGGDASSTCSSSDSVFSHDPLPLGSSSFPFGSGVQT
- METHOD_DESCRIPTION: Inhibition of cell proliferation (CCK-8), Ba/F3 ETV6-FGFR4-V550L cells
- Assay type: cell-based
- CONDITION_PARAMETERS: 72 hours of incubation, read-out: Ba/F3 ETV6-FGFR4-V550L IC50
Overview of reported GI50 across a group of compounds:

Study these solved cases before continuing.
CHEMICAL_STRING: C=CC(=O)Nc1cc(N2CCN(CC)CC2)ccc1Nc1ncc(C#N)c(Nc2ccc(CCC)cc2OC(C)C)n1
TARGET_OF_ASSAY: Ba/F3 ETV6-FGFR4-V550L cells (Homo sapiens, UniProt P22455, V550L, cells depend on it)
GI50: 10 to 50 nM
//
CHEMICAL_STRING: C=CC(=O)Nc1cc(N2CCN(CC)CC2)ccc1Nc1ncc(C#N)c(Nc2ccc(O)cc2OC(C)C)n1
TARGET_OF_ASSAY: Ba/F3 ETV6-FGFR4-V550L cells (Homo sapiens, UniProt P22455, V550L, cells depend on it)
GI50: 50 to 100 nM

Asked: Which GI50 is reported for this compound? `C=CC(=O)Nc1cc(N2CCC(N3CCN(C)CC3)CC2)c(C)cc1Nc1ncc(C#N)c(Nc2ccccc2OC(C)C)n1`
Given back: 10 to 50 nM

Asked: Which GI50 is reported for this compound? `C=CC(=O)Nc1cc(N2CCC(N3CCN(CCO)CC3)CC2)ccc1Nc1ncc(C#N)c(Nc2ccccc2OC(C)C)n1`
Given back: ≤ 10 nM

Asked: Which GI50 is reported for this compound? `C=CC(=O)Nc1cc(N2CCC(N3CCC3)CC2)ccc1Nc1ncc(C#N)c(Nc2ccccc2OC(C)C)n1`
Given back: ≤ 10 nM

Asked: Which GI50 is reported for this compound? `C=CC(=O)Nc1cc(N2CCN(CC)CC2)ccc1Nc1ncc(C#N)c(Nc2ccc(C)cc2OC(C)C)n1`
Given back: ≤ 10 nM

Asked: Which GI50 is reported for this compound? `C=CC(=O)Nc1cc(N2CCN(C(C)C)CC2)ccc1Nc1ncc(C#N)c(Nc2ccccc2OC(C)C)n1`
Given back: ≤ 10 nM

Asked: Which GI50 is reported for this compound? `C=CC(=O)Nc1cc(N2CCC(N3CCN(C)CC3=O)CC2)c(F)cc1Nc1ncc(C#N)c(Nc2ccccc2OC(C)C)n1`
Given back: ≤ 10 nM

----------
Observed IC50 for FGFR4 kinase (Homo sapiens), reported per entry below.

Study these solved cases before continuing.
CHEMICAL_STRING: C=CC(=O)Nc1cc(N2CCC(N3CCN(C)CC3)CC2)ccc1Nc1ncc(C#N)c(Nc2ccccc2CC(C)C)n1
TARGET_OF_ASSAY: FGFR4 kinase (Homo sapiens)
Sequence (P22455 22-802): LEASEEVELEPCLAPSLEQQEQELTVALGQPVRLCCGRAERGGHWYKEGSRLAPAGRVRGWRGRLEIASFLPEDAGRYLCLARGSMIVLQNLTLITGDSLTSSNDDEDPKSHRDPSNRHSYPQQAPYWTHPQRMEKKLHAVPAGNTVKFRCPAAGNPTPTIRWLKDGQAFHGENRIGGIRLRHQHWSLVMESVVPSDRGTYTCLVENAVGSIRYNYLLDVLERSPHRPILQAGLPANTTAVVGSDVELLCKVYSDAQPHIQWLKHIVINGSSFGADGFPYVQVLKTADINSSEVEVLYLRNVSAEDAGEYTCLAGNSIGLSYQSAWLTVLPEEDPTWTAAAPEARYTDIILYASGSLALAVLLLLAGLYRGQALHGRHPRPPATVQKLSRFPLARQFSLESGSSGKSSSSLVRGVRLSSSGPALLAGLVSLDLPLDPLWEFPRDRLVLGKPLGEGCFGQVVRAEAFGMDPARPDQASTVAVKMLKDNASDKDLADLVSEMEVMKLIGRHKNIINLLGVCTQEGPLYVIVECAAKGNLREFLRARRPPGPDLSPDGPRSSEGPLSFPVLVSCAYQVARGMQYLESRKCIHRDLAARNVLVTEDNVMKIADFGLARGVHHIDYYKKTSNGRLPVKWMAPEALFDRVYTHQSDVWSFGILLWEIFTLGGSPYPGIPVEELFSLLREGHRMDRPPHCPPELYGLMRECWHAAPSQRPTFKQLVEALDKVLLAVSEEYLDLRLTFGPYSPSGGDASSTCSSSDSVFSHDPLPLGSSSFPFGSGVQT
IC50: 10 to 50 nM
//
CHEMICAL_STRING: C=CC(=O)Nc1cc(N2CCC(N3CCN(C)C(=O)C3)CC2)ccc1Nc1ncc(C#N)c(Nc2ccccc2OC(C)C)n1
TARGET_OF_ASSAY: FGFR4 kinase (Homo sapiens)
IC50: 10 to 50 nM
//
CHEMICAL_STRING: C=CC(=O)Nc1cc(N2CCC(N3CCCCC3)CC2)c(F)cc1Nc1ncc(C#N)c(Nc2ccccc2OC(C)C)n1
TARGET_OF_ASSAY: FGFR4 kinase (Homo sapiens)
IC50: 10 to 50 nM
//
CHEMICAL_STRING: C=CC(=O)Nc1cc(N2CCC(N(C)CC(C)(C)O)CC2)ccc1Nc1ncc(C#N)c(Nc2ccccc2OC(C)C)n1
TARGET_OF_ASSAY: FGFR4 kinase (Homo sapiens)
IC50: 10 to 50 nM

Asked: Entry `C=CC(=O)Nc1cc(N2CCC(N3CCN(C)CC3=O)CC2)c(F)cc1Nc1ncc(C#N)c(Nc2ccccc2OC(C)C)n1` , system FGFR4 kinase (Homo sapiens): what IC50 was measured?
Given back: 10 to 50 nM

Asked: Entry `C=CC(=O)Nc1cc(N2CCC(N3CCC3)CC2)ccc1Nc1ncc(C#N)c(Nc2ccccc2OC(C)C)n1` , system FGFR4 kinase (Homo sapiens): what IC50 was measured?
Given back: 50 to 100 nM

Asked: Entry `C=CC(=O)Nc1cc(N2CCN(C)CC2)c(F)cc1Nc1ncc(C#N)c(Nc2ccccc2OC(C)C)n1` , system FGFR4 kinase (Homo sapiens): what IC50 was measured?
Given back: 50 to 100 nM

----------
Observed IC50 for UniProtKB P22455, reported per entry below.

Asked: Entry C=CC(=O)Nc1cc(N2CCN(CC)CC2)ccc1Nc1ncc(C#N)c(Nc2ccc(S(C)(=O)=O)cc2OC(C)C)n1 [Example 35] , system UniProtKB P22455: what IC50 was measured?
Given back: 0.01 to 0.05 µM

Asked: Entry C=CC(=O)Nc1cc(N(C)CCN(C)C)ccc1Nc1ncc(C#N)c(Nc2ccccc2OC(C)C)n1 [Example 54] , system UniProtKB P22455: what IC50 was measured?
Given back: 0.01 to 0.05 µM

Asked: Entry C=CC(=O)Nc1cc(N2CCN(CC)CC2)c(F)cc1Nc1ncc(C#N)c(Nc2ccccc2OC(C)C)n1 [Example 15] , system UniProtKB P22455: what IC50 was measured?
Given back: 0.05 to 0.1 µM

Asked: Entry C=CC(=O)Nc1cc(N2CCN(CC)CC2)ccc1Nc1ncc(C#N)c(Nc2cc(C)ccc2OC(C)C)n1 [Example 24] , system UniProtKB P22455: what IC50 was measured?
Given back: 0.01 to 0.05 µM

Asked: Entry C=CC(=O)Nc1cc(N2CCN(CC)CC2)ccc1Nc1ncc(C#N)c(Nc2ccc(CCC)cc2OC(C)C)n1 [Example 38] , system UniProtKB P22455: what IC50 was measured?
Given back: 0.05 to 0.1 µM

Asked: Entry C=CC(=O)Nc1cc(N2CCC(N3CCOCC3)CC2)c(C)cc1Nc1ncc(C#N)c(Nc2ccccc2OC(C)C)n1 [Example 12] , system UniProtKB P22455: what IC50 was measured?
Given back: 0.01 to 0.05 µM

Asked: Entry C=CC(=O)Nc1cc(N2CCC(N(C)C)CC2)c(C)cc1Nc1ncc(C#N)c(Nc2ccccc2OC(C)C)n1 [Example 9] , system UniProtKB P22455: what IC50 was measured?
Given back: 0.01 to 0.05 µM

----------
- TARGET_OF_ASSAY: Ba/F3 ETV6-FGFR4 cells (Homo sapiens)
- Construct: fused on or other part: N-terminal part of ETV6 (TEL), the oligomerising partner that makes the FGFR4 kinase constitutively active; P41212 (Transcription factor ETV6)
- Sequence (P22455 whole entry, change not shown, the tested form may be a part): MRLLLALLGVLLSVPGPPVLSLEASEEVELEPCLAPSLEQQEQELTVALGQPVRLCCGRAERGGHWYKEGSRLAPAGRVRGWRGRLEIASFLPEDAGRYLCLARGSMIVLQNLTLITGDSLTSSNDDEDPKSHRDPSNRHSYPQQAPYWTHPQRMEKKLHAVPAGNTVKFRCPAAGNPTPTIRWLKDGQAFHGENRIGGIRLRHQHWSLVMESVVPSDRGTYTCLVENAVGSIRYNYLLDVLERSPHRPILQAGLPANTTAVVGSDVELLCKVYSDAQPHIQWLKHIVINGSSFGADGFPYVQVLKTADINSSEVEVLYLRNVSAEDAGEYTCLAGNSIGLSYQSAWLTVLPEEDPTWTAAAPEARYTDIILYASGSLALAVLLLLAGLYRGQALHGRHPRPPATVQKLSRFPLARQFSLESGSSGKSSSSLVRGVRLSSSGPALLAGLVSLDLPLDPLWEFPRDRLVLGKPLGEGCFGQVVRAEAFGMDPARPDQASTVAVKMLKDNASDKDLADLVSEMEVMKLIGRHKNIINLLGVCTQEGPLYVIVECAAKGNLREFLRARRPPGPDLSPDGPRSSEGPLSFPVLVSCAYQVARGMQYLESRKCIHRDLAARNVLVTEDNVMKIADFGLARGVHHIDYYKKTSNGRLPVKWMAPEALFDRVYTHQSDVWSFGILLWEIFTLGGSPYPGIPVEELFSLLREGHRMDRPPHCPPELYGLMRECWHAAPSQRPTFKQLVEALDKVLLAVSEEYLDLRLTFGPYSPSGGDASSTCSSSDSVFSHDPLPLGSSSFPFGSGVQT
- METHOD_DESCRIPTION: Inhibition of cell proliferation (CCK-8), Ba/F3 ETV6-FGFR4 cells
- Format: cell-based
- CONDITION_PARAMETERS: 72 hours of incubation, read-out: Ba/F3 ETV6-FGFR4 IC50
Overview of reported GI50 across a group of compounds:

Study these solved cases before continuing.
CHEMICAL_STRING: C=CC(=O)Nc1cc(N2CCC(N3CCC(C#N)CC3)CC2)ccc1Nc1ncc(C#N)c(Nc2ccccc2OC(C)C)n1
GI50: ≤ 10 nM

CHEMICAL_STRING: C=CC(=O)Nc1cc(N2CCN(CC)CC2)ccc1Nc1ncc(C#N)c(Nc2cc(C#N)ccc2OC(C)C)n1
GI50: 10 to 50 nM

CHEMICAL_STRING: C=CC(=O)Nc1cc(N2CCN(CC)CC2)ccc1Nc1ncc(C#N)c(Nc2cc(F)ccc2OC(C)C)n1
GI50: ≤ 10 nM

CHEMICAL_STRING: C=CC(=O)Nc1cc(N2CCC(N3CCN(C)CC3)CC2)ccc1Nc1ncc(C#N)c(Nc2ccccc2S(=O)(=O)C(C)C)n1
GI50: ≤ 10 nM

CHEMICAL_STRING: C=CC(=O)Nc1cc(N2CCC(N3CCN(C)CC3)CC2)ccc1Nc1ncc(C#N)c(Nc2ccc(C(=O)O)cc2OC(C)C)n1
GI50: 100 to 1000 nM

Asked: Which GI50 is reported for this compound? `C=CC(=O)Nc1cc(N2CCC(N(C)CCF)CC2)ccc1Nc1ncc(C#N)c(Nc2ccccc2OC(C)C)n1`
Given back: ≤ 10 nM

Asked: Which GI50 is reported for this compound? `C=CC(=O)Nc1cc(N(C)CCN(C)C)ccc1Nc1ncc(C#N)c(Nc2ccccc2OC(C)C)n1`
Given back: ≤ 10 nM

----------
- TARGET_OF_ASSAY: Ba/F3 ETV6-FGFR4-V550L cells (Homo sapiens, UniProt P22455, V550L, cells depend on it)
- Construct: fused on or other part: N-terminal part of ETV6 (TEL), the oligomerising partner of the fusion; already named as the first entry; P41212 (Transcription factor ETV6)
- METHOD_DESCRIPTION: Inhibition of cell proliferation (CCK-8), Ba/F3 ETV6-FGFR4-V550L cells
- Format: cell-based
- CONDITION_PARAMETERS: 72 hours of incubation, read-out: Ba/F3 ETV6-FGFR4-V550L IC50
RECORDED_METRIC: GI50

CHEMICAL_STRING: C=CC(=O)Nc1cc(N2CCC(N3CCN(C)CC3)CC2)ccc1Nc1ncc(C#N)c(Nc2ccc(C(N)=O)cc2OC(C)C)n1
RESULT: 100 to 1000 nM

Asked: Entry `C=CC(=O)Nc1cc(N2CCN(CC)CC2)ccc1Nc1ncc(C#N)c(Nc2ccc(C3CC3)cc2OC(C)C)n1` , system Ba/F3 ETV6-FGFR4-V550L cells (Homo sapiens, UniProt P22455, V550L, cells depend on it): what GI50 was measured?
Given back: 10 to 50 nM

Asked: Entry `C=CC(=O)Nc1cc(N2CCC(N(C)C3CCOCC3)CC2)ccc1Nc1ncc(C#N)c(Nc2ccccc2OC(C)C)n1` , system Ba/F3 ETV6-FGFR4-V550L cells (Homo sapiens, UniProt P22455, V550L, cells depend on it): what GI50 was measured?
Given back: ≤ 10 nM

Asked: Entry `C=CC(=O)Nc1cc(N2CCN(CC)CC2)ccc1Nc1ncc(C#N)c(Nc2cc(C(F)(F)F)ccc2OC(C)C)n1` , system Ba/F3 ETV6-FGFR4-V550L cells (Homo sapiens, UniProt P22455, V550L, cells depend on it): what GI50 was measured?
Given back: 100 to 1000 nM
